Data provenance is ChEMBL document CHEMBL1201862.

test system: HOP-92; assay: NCI tumour cell line growth inhibition, 48 h
Activity calls are given as the source filed them. Rule as the data show it: active = GI50 up to about 1.1 µM and inactive = higher.
observation.type: GI50

The examples below pair each entry with its known result.
1. Cc1ccc(S(=O)(=O)NCCCCC(N)C(=O)O)cc1 (stereo unspecified) : > 100 µM (inactive)
2. O=C(CCc1cc(O)ccc1O)OCCc1ccccc1 : 2.96 µM (inactive)
3. CSc1nc(NC2OCC(O)C(O)C2O)c(N)c(=O)[nH]1 (stereo unspecified) : > 100 µM (inactive)
4. CCOC(=O)C(C(=O)OCC)C(=O)c1ccccc1C(=O)c1ccccc1 : > 100 µM (inactive)
5. COc1ccc(/C(=N/N=c2[nH]c3ccccc3[nH]2)C(=O)O)cc1 : > 100 µM (inactive)

In: // lookup GI50 for CCN(CC)/[N+]([O-])=N/OCOC(C)=O
Out: > 100 µM (inactive)

====

tested on: SN12C; assay: NCI tumour cell line growth inhibition, 48 h
The source made the active and inactive calls. Rule as the data show it: active = GI50 up to about 1.1 µM and inactive = higher.
observation.type: GI50

The examples below pair each entry with its known result.
1. NNC(=O)CC(=O)Nc1ccc(Cl)cc1 : > 100 µM (inactive)
2. COc1cc(CC2C(=O)OCC2[C@@H](OC(C)=O)c2ccc3c(c2)OCO3)c(Br)c(OC)c1OC (stereo not given in full) : > 100 µM (inactive)
3. Cc1cccc(/N=C/c2ccc(N(CCC#N)S(=O)(=O)c3ccccc3)cc2C)c1 : > 100 µM (inactive)
4. O=C(c1ccccc1)C(c1ccccc1)C1(O)C(=O)Nc2c(Cl)cc(Cl)cc21 (stereo not given) : > 100 µM (inactive)
5. COc1ccc(C2N(c3ccc(F)c([N+](=O)[O-])c3)C(=O)N3C(c4ccc(OC)cc4)N(c4ccc(F)c([N+](=O)[O-])c4)C(=O)N23)cc1 (stereo not given) : > 100 µM (inactive)

For each of the items listed, what is its GI50?
1. CC(=O)N1CCOC12N=NC(C)(C)O2 (stereo not given)
2. CN(C)CCCNCc1cccc2ccccc12
3. CC1=NN(C(=O)c2ccc(Cl)cc2)C(=O)/C1=C/c1cccc(O)c1
4. CSc1nc(NC2OCC(O)C(O)C2O)c(N)c(=O)[nH]1 (stereo not given)
5. COc1nc2c(c(=O)n1C)N[C@@H]1[C@@H](O)[C@H](O)CO[C@@H]1N2
6. CCOC(=O)C(=Cc1[nH]c2ccccc2c1-c1c[nH]c2ccccc12)C(=O)OCC
7. Cc1ccc2nc3c(C(=O)NCCN(C)C)cccc3nc2c1
8. O=C1NC(SSC2=NNC3(C(=O)N2)c2ccccc2-c2ccccc23)=NNC12c1ccccc1-c1ccccc12

Out:
> 100 µM (inactive)
> 100 µM (inactive)
> 100 µM (inactive)
> 100 µM (inactive)
> 100 µM (inactive)
15 µM (inactive)
3.42 µM (inactive)
> 10 µM (inactive)

For each of the items listed, what is its GI50?
1. C=C1CC2C(=O)N(c3ccccc3)C(=O)C2CC1n1[nH]c(=O)n(Cc2ccccc2)c1=O (stereo not given)
2. O=C1CS/C(=N/N=C/c2cn(Cc3ccc(Cl)cc3Cl)c3ccccc23)N1

Out:
["> 100 µM (inactive)", "19.5 µM (inactive)"]

====

tested on: SW-620; test: NCI tumour cell line growth inhibition, 48 h
The source made the active and inactive calls. Rule as the data show it: active = GI50 up to about 1.1 µM and inactive = higher.
Form entry, call: pick from active, inactive

Solved cases below.
1. COc1cc(CC2C(=O)OCC2[C@@H](OC(C)=O)c2ccc3c(c2)OCO3)c(Br)c(OC)c1OC (some centres undefined) : inactive
2. CC(=O)O[C@@H]1O[Si](C(C)(C)C)(C(C)(C)C)[C@H](C)[C@H]1C : inactive
3. CCOC(=O)c1csc(NC(=O)CCN(CC)CC)n1 : inactive
4. CSc1nc(NC2OCC(O)C(O)C2O)c(N)c(=O)[nH]1 (centres undefined) : inactive
5. c1cc(NC2=NCCO2)c2c(c1)OCO2 : inactive
6. Oc1nc2nc3ccccc3nc2nc1O : inactive
7. COC(=O)C1CC2(CCC1=O)Cc1ccccc1C2=O (centres undefined) : inactive
8. O=C(CC1(O)C(=O)Nc2c(Cl)cc(Cl)cc21)c1ccc(F)cc1 (centres undefined) : inactive
9. COC(=O)CCSC(=O)Nc1ccccc1Cl : inactive
10. COc1ccc(/N=C2\C(=O)C3=C(OC(C)(C)CC3)c3ccccc32)cc1 : active

In: Which outcome did this test record for the compound C#CCNC(Cc1ccccc1)C(=O)O (centres undefined) ?
Out: inactive

In: Which outcome did this test record for the compound C#CCn1c(=O)c2cccnc2n(CC#C)c1=O ?
Out: inactive

In: Which outcome did this test record for the compound COc1cc2c(cc1OCCCOc1cc(-c3ccc(F)cc3)nc(C)n1)N=C[C@@H]1CCCN1C2=O ?
Out: inactive

In: Which outcome did this test record for the compound O=C1C(Cl)=C(Cl)C(=O)N1c1ccc(Cl)c(Cl)c1Cl ?
Out: inactive

In: Which outcome did this test record for the compound COc1ccc2c(c1)CC[C@@H]1C2CC[C@]2(C)C(=O)N(CCN(C)C)C(=O)CC12 (some centres undefined) ?
Out: inactive

In: Which outcome did this test record for the compound Cc1ccc2nc(-c3ccc(-n4c(C)nc(=O)c(-c5ccc(F)cc5)c4C)cc3)sc2c1 ?
Out: inactive

In: Which outcome did this test record for the compound Cc1cccc(/N=C/c2ccc(N(CCC#N)S(=O)(=O)c3ccccc3)cc2C)c1 ?
Out: inactive

In: Which outcome did this test record for the compound Cc1cc(-c2nc3ccccc3s2)ccc1NS(=O)(=O)O ?
Out: inactive

In: Which outcome did this test record for the compound CCOC(=O)c1nc2ccccc2nc1Oc1ccc(C#N)cc1 ?
Out: inactive
